Recorded self-cleavage values for a group of variants are listed next.
B1: CPEB3 Ribozyme (parent)
chain: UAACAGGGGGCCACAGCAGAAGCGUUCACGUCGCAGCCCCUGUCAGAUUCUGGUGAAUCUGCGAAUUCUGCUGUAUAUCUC

variants of: B1; test: self-cleavage, relative activity (ratio to wild type); higher = more cleavage; in vitro, sequencing
Please give the numeric answer without any surrounding text.

# count of solved cases: 10
U1A G7U: 0.3
C11G A45U: 0.23
C14U A20U: 0.4
C12G G30A: 0.29
A35G A57U: 1.22
A47U U49A: 0.41
G53A A64G: 0.98
A18G A77U: 0.78
U31A U58C: 0.36
U58C A75U: 0.7

Entry C11G U54C : reported self-cleavage = ?
0.49

Entry to check: A65G U72A
0.4

Entry to check: A57G U72A
0.62

Entry to check: U1A A18G
0.57

Entry to check: C29A U76G
0.42
